assay_overview: chemical genetic growth profiling, strain panel (AID 1159580);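 note: tested at 20 µM; growth read once vehicle control cultures reached saturation at 30 °C; 1 = growth at the plate median or of vehicle wells; lower values mean less growth of the strain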
setup_conditions: S. cerevisiae deletion strains, growth OD, locus YLR371W, strain rom2
In all, about 5,500 compounds went through this assay and about 2,000 (36%) were called active. Inconclusive results (about 18%) are left out. Cut-off read from the data, not from the text of the source: active = normalized growth mostly below about 0.91 (no sharp cut-off); inconclusive = no clear call, values can overlap the other calls; inactive = mostly above about 0.92. The list shows a part of the results.
Classes to choose from: true for active, false for inactive

* CCCC(C)C1(CC)C(=O)N=C(S)NC1=O (stereo not given) | true
* CCCC1O[C@@H]2CC3C4CCC5=CC(=O)C=CC5(C)C4[C@@H](O)CC3(C)[C@]2(C(=O)CO)O1 (stereo not given in full) | false
* CO[C@H]1/C=C/O[C@@]2(C)Oc3c(C)c(O)c4c(O)c(c(/C=N/N5CCN(C)CC5)c(O)c4c3C2=O)NC(=O)/C(C)=C\C=C\C(C)[C@H](O)[C@@H](C)[C@@H](O)[C@@H](C)[C@@H](OC(C)=O)[C@@H]1C (stereo not given in full) | false

Task: Test call for this molecule, please: CCCC(C)C1(CC)C(=O)NC(=O)NC1=O (stereo not given)
Result: false

Task: Write down the call the test reported for this molecule. Item: CN(C)CCOC(C)(c1ccccc1)c1ccccn1 (stereo not given)
Result: false

###

assay_overview: chemical genetic growth profiling, strain panel (AID 1159580)
setup_conditions: S. cerevisiae deletion strains, growth OD, locus YCL011C, strain gbp2
Screen size: about 5,500 compounds; about 2,000 (36%) were called active. Inconclusive results (about 18%) are left out. Rule as the data show it: active = normalized growth mostly below about 0.91 (no sharp cut-off); inconclusive = no clear call, values can overlap the other calls; inactive = mostly above about 0.92. The list shows a part of the results.
Give one outcome, nothing more. List: active, inactive

These recorded examples may help you get a feel for the data.
* CN1C(CC(=O)c2ccccc2)CCCC1CC(O)c1ccccc1 (stereo not drawn) | inactive
* O[N+]1=CC=CCC1=S.On1ccccc1=S.[Zn] | active
* Oc1c(I)cc(I)c2cccnc12 | active
* CCCCC1=NC2(CCCC2)C(=O)N1Cc1ccc(-c2ccccc2-c2nn[nH]n2)cc1 | inactive
* COc1ccccc1OCCNCC(O)COc1cccc2[nH]c3ccccc3c12 (stereo not drawn) | inactive

Task: Please let me know the test result on file for NC(=NCCC[C@H](N)C(=O)O)NC(CCC(=O)O)C(=O)O (stereo partly drawn) .
Result: inactive

Task: Recorded call for C[C@H](N)[C@H](O)c1ccc(O)c(O)c1 ?
Result: inactive

Task: Could you check what this test reported for Nc1ncnc2c1ncn2[C@@H]1O[C@H](CO)[C@@H](O)[C@H]1O ?
Result: inactive

###

assay_overview: chemical genetic growth profiling, strain panel (AID 1159580)
setup_conditions: S. cerevisiae deletion strains, growth OD, locus YBR231C, strain swc5, stronger effect = lower value
Among all 5,500 compounds or so, about 2,000 (36%) were called active. Not shown: some 18% with an inconclusive outcome. Some of the results follow.
readout_type: normalized growth
// return a plain number; no unit text

Here are 3 compounds together with their reported answers.
• O=C1C=CC2=C3c4cc(O)c(O)cc4C[C@@]3(O)COC2=C1 = 0.978
• CC(=O)Nc1cc([As](=O)(O)O)ccc1O = 1.01
• CCN(CC)CCNC(=O)c1cc(S(C)(=O)=O)ccc1OC = 0.974

Given item CCCC(C)C1(CC)C(=O)NC(=O)NC1=O (stereo unspecified) , the value recorded as its normalized growth is 0.994

Recorded normalized growth (compound Nc1ncnc2c1ncn2C1C[C@H](O)[C@@H](CO)O1 (stereo partly specified) ): 1.01

Sure, the documented normalized growth for Cc1c(O)c(O)cc2c1CC=C1[C@@]2(C)CC[C@@]2(C)C3C[C@](C)(C(=O)O)CC[C@]3(C)CC[C@]12C (stereo partly specified) is 0.326

The recorded normalized growth for entry C=C(NC(=O)C(=C)NC(=O)c1csc(C2=NC3c4csc(n4)C4NC(=O)c5csc(n5)C(C(C)(O)C(C)O)NC(=O)C5CSC(=N5)C(=CC)NC(=O)C(C(C)O)NC(=O)c5csc(n5)C3(CC2)NC(=O)C(C)NC(=O)C(=C)NC(=O)C(C)NC(=O)C(C(C)CC)NC2C=Cc3c(C(C)O)cc(nc3C2O)C(=O)OC4C)n1)C(N)=O (stereo unspecified) equals 1.01

normalized growth reading for C1CNCCN1 : 0.997

###

assay_overview: chemical genetic growth profiling, strain panel (AID 1159580);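 note: tested at 20 µM; growth read once vehicle control cultures reached saturation at 30 °C; 1 = growth at the plate median or of vehicle wells; lower values mean less growth of the strain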
setup_conditions: S. cerevisiae deletion strains, growth OD, locus YJL134W, strain LCB3, stronger effect = lower value
The campaign covered roughly 5,500 compounds. About 2,000 (36%) were called active. Another 18% or so got no clear call; they are omitted. The list shows a part of the results.
Let's look at some compounds and their measured normalized growth.
Quick one: just the number, no unit, thanks!

Some compounds with recorded normalized growth:
• C=CC(C1=CC(=O)C(OC)=CC1=O)c1ccccc1 (configuration not stated) = 0.96
• C=CC(C1=CC(=O)C=CC1=O)c1ccccc1 (configuration not stated) = 0.99
• Nc1ccc(S(=O)(=O)Nc2ccccn2)cc1 = 1
• Oc1c(Br)cc(Br)c2cccnc12 = 0.0513
• C1CCN2CC3CC(CN4CCCCC34)C2C1 (configuration not stated) = 1.01

Looking up C=CC(C1=CC(=O)C(OC)=CC1=O)c1ccc(O)cc1 (configuration not stated) , I found its normalized growth recorded as 0.978

// normalized growth value for C=CC(C1=CC(=O)C(OC)=CC1=O)c1ccc(OC)cc1 (configuration not stated) : 0.967

The value of normalized growth measured for the compound Cc1ccsc1/C=C/C1=NCCCN1C turned out to be 1

Looking up O=C1C=CC2=C3c4cc(O)c(O)cc4C[C@@]3(O)COC2=C1 , I see its normalized growth listed as 1.01

Reported normalized growth for O[N+]1=CC=CCC1=S.On1ccccc1=S.[Zn] was 0.0509

Per the records, this compound ( CSCCC(NC=O)C(=O)NC(C)C(=O)O (configuration not stated) ) has normalized growth equal to 0.991

# compound O=C1C=CC2=C3c4cc(O)c(O)cc4CC3(O)COC2=C1O (configuration not stated) ; its normalized growth = 0.999

###

normalized growth: recorded values
assay_overview: chemical genetic growth profiling, strain panel (AID 1159580);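 note: tested at 20 µM; growth read once vehicle control cultures reached saturation at 30 °C; 1 = growth at the plate median or of vehicle wells; lower values mean less growth of the strain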
setup_conditions: S. cerevisiae deletion strains, growth OD, locus YNL175C, strain NOP13, stronger effect = lower value
Among all 5,500 compounds or so, about 2,000 (36%) were called active. Not shown: some 18% with an inconclusive outcome. The list shows a part of the results.

Reference set, count: 10
* O=[N+]([O-])c1cc(O)c(O)c([N+](=O)[O-])c1 | 0.976 (inactive)
* CC/C(=C(\c1ccccc1)c1ccc(OCCN(C)C)cc1)c1ccccc1 | 0.968 (inactive)
* OCC1NCC(O)C(O)C1O (configuration not stated) | 1.02 (inactive)
* CN(C)C(N)=NCCC[C@H](N)C(=O)O | 1 (inactive)
* O=[N+]([O-])c1ccc2nc(N3CCNCC3)ccc2c1 | 1 (inactive)
* CO[C@@]1(NC(=O)CSCC#N)C(=O)N2C(C(=O)O)=C(CSc3nnnn3C)CS[C@@H]21 | 0.995 (inactive)
* CCN(CC)CCNC(=O)c1cc(S(C)(=O)=O)ccc1OC | 1.01 (inactive)
* CCCCCCCC/C=C\CCCCCCCC(=O)NCCO | 0.963 (inactive)
* C[C@@]1(C2CCCC2)Cc2cc(OCC(=O)O)c(Cl)c(Cl)c2C1=O | 1 (inactive)
* NCC(CP(=O)(O)O)c1ccc(Cl)cc1 (configuration not stated) | 0.986 (inactive)

normalized growth in this record for CCCn1c(C)c(C(=O)c2ccc3ccccc3c2)c2ccccc21 : 0.974 (inactive)

According to the records, this molecule O=C(CCNNC(=O)c1ccncc1)NCc1ccccc1 displays normalized growth of 0.996 (inactive)

# normalized growth of CCN1CCc2nc(N)oc2CC1 = 1.01 (inactive)

Record CCCC[C@@]1(C2CCCC2)Cc2cc(OCC(=O)O)c(Cl)c(Cl)c2C1=O , field normalized growth: 0.986 (inactive)

The reported normalized growth of the molecule OC[C@H]1O[C@@H](n2cnc3c(NCCc4ccccc4)ncnc32)C(O)[C@H]1O (some centres not stated) was 0.991 (inactive)

###

assay_overview: chemical genetic growth profiling, strain panel (AID 1159580);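 note: tested at 20 µM; growth read once vehicle control cultures reached saturation at 30 °C; 1 = growth at the plate median or of vehicle wells; lower values mean less growth of the strain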
setup_conditions: S. cerevisiae deletion strains, growth OD, locus YOR270C, strain vph1, stronger effect = lower value
About 2,000 (36%) of roughly 5,500 compounds were called active. Inconclusive results (about 18%) are left out. This is one part of the list.
readout_type: normalized growth
The reply should be a number, written without any unit.

What the record says about Nc1ccc(S(=O)(=O)Nc2ccc(Cl)nn2)cc1 : normalized growth is 0.994

normalized growth for CC(=O)Nc1ccc(S(=O)(=O)c2ccc(NC(C)=O)cc2)cc1 is 1.02

Lab note: measured normalized growth of CCCC(C)C1(CC)C(=O)NC(=O)NC1=O (configuration not stated) was 1.01

The measured normalized growth associated with O=C1CCCC2C3CC(CN12)[C@@H]1CCCCN1C3 (some centres not stated) reads 1.03

Record NC(=NCCC[C@H](N)C(=O)O)NC(CCC(=O)O)C(=O)O (some centres not stated) . Reported normalized growth: 1.02

// normalized growth value for CCN(CC)CCOc1ccc(/C(=C(\Cl)c2ccccc2)c2ccccc2)cc1 : 0.0899

molecule C=C[C@@H](C1=CC(=O)C(OC)=C(OC)C1=O)c1ccccc1 , normalized growth observed: 0.616

# normalized growth of C=C(C)C1CC=C(CO)CC1 (configuration not stated) = 0.949
